test system: Schistosoma mansoni; test: Antischistosomal activity against adult male Schistosoma mansoni BH derived from infected Swiss mouse assessed as reduction in motility measured after 48 hrs by automated image-based analysis; assay type: functional, organism-based
Each entry below carries its reported pEC50.
The scale used: pEC50 is minus the common logarithm of the concentration in molar units.

>  <COMPOUND>
O=C(C1CCCCC1)N1CC(=O)N2CCc3ccccc3C2C1 (configuration not stated)

>  <TARGET_ENTITY>
Schistosoma mansoni

>  <MEASURED_ATTRIBUTE>
pEC50

>  <OBSERVED_RESULT>
6.89

$$$$

Now turn to the next compound.
Quick check: pEC50 of Fc1ccc([C@@H]2CCNC[C@H]2COc2ccc3c(c2)OCO3)cc1 ?
5.42

---

test system: Schistosoma mansoni; test: Antischistosomal activity against adult female Schistosoma mansoni BH derived from infected Swiss mouse assessed as reduction in motility measured after 48 hrs by automated image-based analysis; format: functional, organism-based
MEASURED_ATTRIBUTE: EC50 (µM)
Give the quantity in µM, number only.

Hello, I am looking for reported EC50 with Schistosoma mansoni for Fc1ccc([C@@H]2CCNC[C@H]2COc2ccc3c(c2)OCO3)cc1 [PAROXETINE] . Could you help?
11.5
